biological target: PfGRP78-NBD wt (Plasmodium falciparum, UniProt Q05866); construct: His-tag (pET28-MHL, TEV site) (N, cleaved yes); made in house; host or cells: E. coli BL21(DE3); assay: biochemical; format: binding; details: ± standard error; affinity analysis; 25 °C; read-out: affinity constant (Kd) determined by SPR, PfGRP78-NBD wt
Sequence (Q05866 26-404): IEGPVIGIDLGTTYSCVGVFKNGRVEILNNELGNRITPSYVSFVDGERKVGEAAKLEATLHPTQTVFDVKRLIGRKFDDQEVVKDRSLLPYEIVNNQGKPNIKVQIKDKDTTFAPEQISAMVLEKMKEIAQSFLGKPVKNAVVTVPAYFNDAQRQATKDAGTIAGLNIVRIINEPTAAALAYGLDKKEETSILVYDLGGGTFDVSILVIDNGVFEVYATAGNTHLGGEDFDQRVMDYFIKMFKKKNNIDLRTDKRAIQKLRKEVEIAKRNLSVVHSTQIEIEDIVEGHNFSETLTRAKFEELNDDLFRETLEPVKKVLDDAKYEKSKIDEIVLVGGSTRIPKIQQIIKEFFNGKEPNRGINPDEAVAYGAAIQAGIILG
property-measured: Kd (µM)
Give bare numbers, in µM.

Looking up Nc1ncnc2c1ncn2[C@@H]1O[C@H](COP(=O)(O)OP(=O)(O)OP(=O)(O)O)[C@@H](O)[C@H]1O , I see its Kd listed as 333

====

target: huGRP78-NBD (Homo sapiens); construct: PfGRP78-NBD wild type and mutant, and human GRP78-NBD were buffered in 25 mM hepes pH 7.5; test: SPR (Biacore) binding to human GRP78-NBD; conditions: ± standard error; calculated from kinetic constants; 25 °C; read-out: affinity constant (Kd) determined by SPR, huGRP78-NBD
Sequence (P11021 26-407 limits assumed): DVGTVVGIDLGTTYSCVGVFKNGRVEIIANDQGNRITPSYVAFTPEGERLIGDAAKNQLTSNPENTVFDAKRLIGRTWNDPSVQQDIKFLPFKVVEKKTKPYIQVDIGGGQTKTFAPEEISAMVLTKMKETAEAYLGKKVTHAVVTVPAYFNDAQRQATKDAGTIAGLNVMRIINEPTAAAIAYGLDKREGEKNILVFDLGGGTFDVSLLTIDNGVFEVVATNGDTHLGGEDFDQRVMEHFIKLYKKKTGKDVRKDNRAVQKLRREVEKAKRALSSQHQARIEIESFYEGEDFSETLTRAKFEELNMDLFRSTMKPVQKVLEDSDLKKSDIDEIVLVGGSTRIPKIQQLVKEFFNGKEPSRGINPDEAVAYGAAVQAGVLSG
property-measured: Kd (µM)
One number for each entry, in µM.

Nc1ncnc2c1ncn2[C@@H]1O[C@H](COP(=O)(O)OP(=O)(O)OP(=O)(O)O)[C@@H](O)[C@H]1O [ATP] :: 14

Looking up COc1ccc(-c2nc(-c3cc(C(F)(F)F)cc(C(F)(F)F)c3)n(Cc3ccc(C(N)=O)cc3)c2-c2ccc(OC)cc2)cc1 [Apoptozole] , I see its Kd listed as 6.9

These data points were gathered from paper PMC6037779.
